Values compiled from patent US7713994B2.

target: cyclin E/CDK2 enzyme (Homo sapiens); construct: made in house; host or cells: Sf9 insect cells, recombinant baculovirus; assay: CDK2 ELISA kinase assay (phospho-Rb ser 795 detection); type: biochemical; settings: In Vitro Enzyme Assays, read-out: CDK2 IC50
readout_type: IC50

[
  {
    "molecule": "CC(C)C(=O)Nc1ccc(CN/C=C2\\C(=O)NC(=O)c3ccc(I)cc32)cc1O [Example 335]",
    "readout_type": "IC50",
    "observed_value": "1.4 µM"
  },
  {
    "molecule": "O=C1NC(=O)c2ccc(-c3ccsc3)cc2/C1=C/Nc1ccc(CN2CCCCC2)cc1 [Example 104]",
    "readout_type": "IC50",
    "observed_value": "> 50 µM"
  },
  {
    "molecule": "CCCOc1ccc(CN/C=C2\\C(=O)N(O)C(=O)c3ccccc32)cc1O [Example 230]",
    "readout_type": "IC50",
    "observed_value": "38 µM"
  }
]

Please supply the value of reported IC50 for the item CCCN1CCN(c2ccc(N/C=C3\C(=O)NC(=O)c4ccc(I)cc43)cc2)CC1 [Example 388]
> 50 µM

Please supply the value of reported IC50 for the item O=C1NC(=O)c2ccc(I)cc2/C1=C/Nc1ccc(N2CCC(C(=O)O)CC2)cc1 [Example 431]
4.1 µM

Please supply the value of reported IC50 for the item CC(C)(O)[C@H]1CCCN1Cc1ccc(N/C=C2\C(=O)NC(=O)c3ccc(I)cc32)cc1 [Example 369]
> 50 µM

Please supply the value of reported IC50 for the item CN1CCN(c2ccc(N/C=C3\C(=O)NC(=O)c4ccc(-c5ccc(-c6cccs6)s5)cc43)cc2)CC1 [Example 182]
> 50 µM

Please supply the value of reported IC50 for the item CN(C)C1CCN(Cc2ccc(N/C=C3\C(=O)NC(=O)c4ccc(I)cc43)cc2)C1 (centres unmarked) [Example 422]
> 50 µM
